B1: LINE1-full (parent)
chain: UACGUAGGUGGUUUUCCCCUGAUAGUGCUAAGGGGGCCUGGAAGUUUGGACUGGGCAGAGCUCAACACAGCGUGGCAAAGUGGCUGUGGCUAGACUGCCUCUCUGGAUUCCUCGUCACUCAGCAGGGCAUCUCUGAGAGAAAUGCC

# Variants of: B1
# Assay name: self-cleavage, relative activity (ratio to wild type); higher = more cleavage; in vitro, sequencing; the parent is a self-cleaving ribozyme
Record form. Attribute: self-cleavage. Fill in for each entry.
The reply should be a number, written without any unit.

Entry C71A C133U , self-cleavage reported as 0.08

Entry U81C A121G , self-cleavage reported as 1.38

Entry A30U U91C , self-cleavage reported as 0.56

Entry A30U A77G , self-cleavage reported as 1.25

Entry U9G A64C , self-cleavage reported as 0.18

Entry A42G A140G , self-cleavage reported as 1.46

Entry U73C A129C , self-cleavage reported as 1.36

Entry A6U U119C , self-cleavage reported as 0.75

Entry U87C A140G , self-cleavage reported as 0.13

Entry G53U A140C , self-cleavage reported as 0.8

Entry A43G C128U , self-cleavage reported as 0.79

Entry A67G U134C , self-cleavage reported as 0.56

Entry U45C G82A , self-cleavage reported as 1.86

Entry C19U C133A , self-cleavage reported as 0.59

Entry U20A U46A , self-cleavage reported as 0.96

Entry A69G G114A , self-cleavage reported as 0.99

Entry `U13A` , self-cleavage reported as 0.98

Entry U14C G32U , self-cleavage reported as 1.03

Entry C16U U100C , self-cleavage reported as 1.02

Entry A94G U132C , self-cleavage reported as 0.34

Entry G32A C101U , self-cleavage reported as 0.95

Entry A30G U119A , self-cleavage reported as 1.01

Entry G7C U143C , self-cleavage reported as 1.93

Entry A65U U96C , self-cleavage reported as 0.02

Entry A42G U81A , self-cleavage reported as 2.11

Entry A30G G126U , self-cleavage reported as 0.96

Entry G89A U109C , self-cleavage reported as 0.04

Entry G53A G126A , self-cleavage reported as 1.23

Entry A92G U132A , self-cleavage reported as 0.05

Entry A42U A129G , self-cleavage reported as 1.34

Entry U9C A117G , self-cleavage reported as 1.53

Entry U20C G36A , self-cleavage reported as 1.23

Entry G41A C95U , self-cleavage reported as 0.12

Entry `G97U` , self-cleavage reported as 0.06

Entry A107G A138G , self-cleavage reported as 1.42

Entry U29C A140G , self-cleavage reported as 1.2

Entry U14A U46A , self-cleavage reported as 0.86

Entry A43G U85A , self-cleavage reported as 0.1

Entry A31G A43G , self-cleavage reported as 0.98

Entry A64G G75A , self-cleavage reported as 0.17

Entry C61U U104A , self-cleavage reported as 0.02

Entry U23A U45C , self-cleavage reported as 0.71

Entry U96A U134A , self-cleavage reported as 0.08

Entry A43U A138G , self-cleavage reported as 0.83

Entry U39G C123A , self-cleavage reported as 0.91

Entry G8C A138G , self-cleavage reported as 1.44

Entry C113U U130C , self-cleavage reported as 1.77

Entry A24C U109A , self-cleavage reported as 2.55

Entry A69G U130A , self-cleavage reported as 0.39

Entry A57G G60C , self-cleavage reported as 0.11

Entry U9C U20A , self-cleavage reported as 0.95

Entry U73A A79C , self-cleavage reported as 2.16

Entry U100C G105U , self-cleavage reported as 2.13

Entry A94U C101U , self-cleavage reported as 0.31

Entry A22U U134A , self-cleavage reported as 1.15

Entry A78C U96A , self-cleavage reported as 0.14

Entry C71A A77G , self-cleavage reported as 0.18

Entry U29C U104C , self-cleavage reported as 1

Entry G8A U13C , self-cleavage reported as 1.05

Entry C76G C84A , self-cleavage reported as 0.14

Entry A42C U73C , self-cleavage reported as 0.75

Entry U13C U100C , self-cleavage reported as 1.4

Entry U12C A78C , self-cleavage reported as 2.54

Entry U47C G105A , self-cleavage reported as 1.45

Entry U112C A142G , self-cleavage reported as 1.43

Entry A50G G122A , self-cleavage reported as 0.83

Entry U26G A79G , self-cleavage reported as 0.53

Entry A50G C56U , self-cleavage reported as 0.06

Entry U81A G88A , self-cleavage reported as 0.06

Entry U12G U62A , self-cleavage reported as 0.16

Entry A79U C111G , self-cleavage reported as 2.75

Entry U46G A69G , self-cleavage reported as 0

Entry U52A C145U , self-cleavage reported as 1.6

Entry U26C U104A , self-cleavage reported as 1.13

Entry G70U U130C , self-cleavage reported as 0.08

Entry A31G A67G , self-cleavage reported as 0.5

Entry C3U A117G , self-cleavage reported as 0.45

Entry A6C A141G , self-cleavage reported as 1.71

Entry U45G A121G , self-cleavage reported as 0.46

Entry U73A U102C , self-cleavage reported as 0.97

Entry U23A A64C , self-cleavage reported as 0.48

Entry `C84A` , self-cleavage reported as 0.1

Entry G44C A64G , self-cleavage reported as 0.24

Entry U12G A92U , self-cleavage reported as 0.62

Entry U108C A121G , self-cleavage reported as 1.68
